tested on: ACHN; assay: NCI tumour cell line growth inhibition, 48 h
Activity calls are given as the source filed them. No stated cut-off is given here; in the data, active = GI50 up to about 1.1 µM and inactive = higher.
Response enum: y for active, n for inactive

// known answers, use as guide
COC(O)C(=O)c1c2c(cc3c1CC1(Cc4cc5c(cc4C1)CCC5)C3)CCC2 (stereo unspecified): n
CCOc1ccc(NC(=O)C(=O)CC(=O)C2=C(C)Nc3ccccc3S2)cc1: n
O=[N+]([O-])C(/C=C(\Cl)[N+](=O)[O-])=C(N1CCCCC1)N1CCCCC1: n
C=C(c1ccccc1)[C@@]1(O)CC[C@@H]1N(CC#N)Cc1ccccc1: n
CN(C)CCc1c2c(nc3ccccc13)C(=O)c1cccnc1C2=O: y

Task item: Which result was noted for this compound in the test: `CC(C)=C[C@H]1C[C@H](C)[C@H]2CC[C@H](C)c3c2c1c(C)c1ncoc31`
Reply: n

Task item: Can you check `CN(N=O)c1nc2c(C(N)=O)ncn2s1` next?
Reply: n

Task item: Note, next up: `Cn1c2ccccc2n2c3ncccc3c(=S)c(C#N)c12`
Reply: n

Task item: Try this compound next: `CC(C)=CCNc1nc(Cl)nc2[nH]cnc12`
Reply: n

Task item: Now this one: `Cc1ccc(-c2n[nH]c(=O)n2N)cc1`
Reply: n

Task item: Proceed to `CC(=O)c1c2n(n(-c3ccccc3)c1=O)C(=O)c1nccnc1-2`
Reply: n

Task item: Same thing, different compound: `O=C1/C(=N\n2c(S)nnc2-c2ccncc2)c2cc(Cl)ccc2N1CN1CCCCC1`
Reply: n
